MEASUREMENT DESCRIPTION: Turbidity, derived count rate of scattered light
Format: physicochemical
CONDITIONS USED: Fig S8 panels A, C; log of derived count rate, asymmetric log errors
READOUT LABEL: Log Count Rate

{"SUBSTANCE": "QCKIKQIINMWQ [reference compound]", "RECORDED MEASUREMENT": 3.415}
{"SUBSTANCE": "RGDSGGGGGGKIKIQIC [TM114 / RC17]", "RECORDED MEASUREMENT": 4.018}
{"SUBSTANCE": "HHHHKIKIKIKIWWWW [TM4]", "RECORDED MEASUREMENT": 4.376}
{"SUBSTANCE": "CQFQFQF [QBL4]", "RECORDED MEASUREMENT": 3.899}
{"SUBSTANCE": "HIHIQIC [CN12]", "RECORDED MEASUREMENT": 2.416}
{"SUBSTANCE": "CKIKQII [MG4a]", "RECORDED MEASUREMENT": 1.873}
{"SUBSTANCE": "HHHHKIKIQINMYYYY [TM16]", "RECORDED MEASUREMENT": 3.753}
{"SUBSTANCE": "CKIKQIINMWQ [MG5a / CK17]", "RECORDED MEASUREMENT": 3.92}
{"SUBSTANCE": "KIKQIIN [JGA3]", "RECORDED MEASUREMENT": 1.806}
{"SUBSTANCE": "CKAKAQANMWQ [BL8]", "RECORDED MEASUREMENT": 0.9528}
{"SUBSTANCE": "CSISIQI [TM141]", "RECORDED MEASUREMENT": 4.01}
{"SUBSTANCE": "CKFKQFFNM [CK14]", "RECORDED MEASUREMENT": 4.436}
{"SUBSTANCE": "CKFKFQFNM [BL3]", "RECORDED MEASUREMENT": 3.347}
{"SUBSTANCE": "KIKIQIN [JGB3]", "RECORDED MEASUREMENT": 1.638}
{"SUBSTANCE": "KWKWQW [KB3]", "RECORDED MEASUREMENT": 3.189}
{"SUBSTANCE": "KIKIQIC [TM112 / CN11]", "RECORDED MEASUREMENT": 2.992}

###

MEASUREMENT DESCRIPTION: Turbidity, derived count rate of scattered light
Assay type: physicochemical
CONDITIONS USED: derived count rate of scattered light at 633 nm, 173°, from zeta-potential measurement, 0.1 mg/mL in 1 mM KCl after 1 d at 1 mg/mL in PBS; turbidity / microscopic aggregation; mean of triplicate
Outcome: criterion met for Count Rate / kcps of at least 1000 kcps; criterion not met for anything lower.

{"SUBSTANCE": "KAQCTLP", "CLASS ASSIGNMENT": "criterion not met"}
{"SUBSTANCE": "CEIEIQINM", "CLASS ASSIGNMENT": "criterion not met"}
{"SUBSTANCE": "RATVYV [reference compound]", "CLASS ASSIGNMENT": "criterion not met"}
{"SUBSTANCE": "CKIKIQINM", "CLASS ASSIGNMENT": "criterion met"}
{"SUBSTANCE": "CSISIQI", "CLASS ASSIGNMENT": "criterion met"}
{"SUBSTANCE": "KLKQLL", "CLASS ASSIGNMENT": "criterion not met"}
{"SUBSTANCE": "KAKLTCT", "CLASS ASSIGNMENT": "criterion not met"}
{"SUBSTANCE": "KFKFQFNMWQ", "CLASS ASSIGNMENT": "criterion not met"}
{"SUBSTANCE": "KIKQIINM", "CLASS ASSIGNMENT": "criterion met"}
{"SUBSTANCE": "KIEIQINM", "CLASS ASSIGNMENT": "criterion not met"}
{"SUBSTANCE": "CKWKWQW", "CLASS ASSIGNMENT": "criterion met"}
{"SUBSTANCE": "QCKIKIQINMWQ", "CLASS ASSIGNMENT": "criterion met"}
{"SUBSTANCE": "KIKIQINMWWWQ", "CLASS ASSIGNMENT": "criterion met"}
{"SUBSTANCE": "QCKFKQFFNM", "CLASS ASSIGNMENT": "criterion met"}
{"SUBSTANCE": "CEIEIQI", "CLASS ASSIGNMENT": "criterion not met"}
{"SUBSTANCE": "NMWQKVGTPL", "CLASS ASSIGNMENT": "criterion not met"}
{"SUBSTANCE": "KIKQIIN", "CLASS ASSIGNMENT": "criterion not met"}
{"SUBSTANCE": "MDQMDQMDQMDQMDQ", "CLASS ASSIGNMENT": "criterion not met"}
{"SUBSTANCE": "RVRVTVT", "CLASS ASSIGNMENT": "criterion not met"}
{"SUBSTANCE": "KKFQKKFQ", "CLASS ASSIGNMENT": "criterion not met"}
{"SUBSTANCE": "NMWQKFKFQF", "CLASS ASSIGNMENT": "criterion met"}
{"SUBSTANCE": "NMWQKIKIQI", "CLASS ASSIGNMENT": "criterion met"}
{"SUBSTANCE": "CKIKQIINMWQ", "CLASS ASSIGNMENT": "criterion met"}
{"SUBSTANCE": "KIKIKIKIWWWW", "CLASS ASSIGNMENT": "criterion met"}
{"SUBSTANCE": "TKTLTKTL", "CLASS ASSIGNMENT": "criterion not met"}
{"SUBSTANCE": "KFKQFFINMWQ", "CLASS ASSIGNMENT": "criterion met"}
{"SUBSTANCE": "RGDKIRGDKI", "CLASS ASSIGNMENT": "criterion not met"}
{"SUBSTANCE": "QCKFKFQFNMWQ", "CLASS ASSIGNMENT": "criterion met"}
{"SUBSTANCE": "KIWIWIW", "CLASS ASSIGNMENT": "criterion met"}
{"SUBSTANCE": "QCKFKFQFNM", "CLASS ASSIGNMENT": "criterion met"}
{"SUBSTANCE": "KIKIQINMWA", "CLASS ASSIGNMENT": "criterion met"}
{"SUBSTANCE": "CEFEFQF", "CLASS ASSIGNMENT": "criterion not met"}
{"SUBSTANCE": "HHHHKAKAKAKAWWWW", "CLASS ASSIGNMENT": "criterion not met"}
{"SUBSTANCE": "KFKFQFN", "CLASS ASSIGNMENT": "criterion not met"}
{"SUBSTANCE": "KIKIKIKIYYYY", "CLASS ASSIGNMENT": "criterion met"}
{"SUBSTANCE": "GAITIG-NH2 [reference compound]", "CLASS ASSIGNMENT": "criterion not met"}
{"SUBSTANCE": "RLRLTLC", "CLASS ASSIGNMENT": "criterion not met"}
{"SUBSTANCE": "KIKQIINMWQ", "CLASS ASSIGNMENT": "criterion not met"}
{"SUBSTANCE": "KFKFQF", "CLASS ASSIGNMENT": "criterion not met"}
{"SUBSTANCE": "KIKIQIN", "CLASS ASSIGNMENT": "criterion not met"}
{"SUBSTANCE": "CKFKQFF", "CLASS ASSIGNMENT": "criterion not met"}
{"SUBSTANCE": "RGDKIKIQIC", "CLASS ASSIGNMENT": "criterion met"}
{"SUBSTANCE": "MKIKIQINMWQ", "CLASS ASSIGNMENT": "criterion met"}
{"SUBSTANCE": "NSGAITIG-NH2 [reference compound]", "CLASS ASSIGNMENT": "criterion not met"}
{"SUBSTANCE": "PPFHPPPFHP", "CLASS ASSIGNMENT": "criterion not met"}
{"SUBSTANCE": "QCKAKAQANMWQ", "CLASS ASSIGNMENT": "criterion not met"}
{"SUBSTANCE": "RGEKIKIQINM", "CLASS ASSIGNMENT": "criterion not met"}
{"SUBSTANCE": "RGDSGGGGGGKIKIQIC", "CLASS ASSIGNMENT": "criterion met"}
{"SUBSTANCE": "CKIKQIINM", "CLASS ASSIGNMENT": "criterion met"}
{"SUBSTANCE": "QCKIKQII", "CLASS ASSIGNMENT": "criterion not met"}
{"SUBSTANCE": "IFQINS [reference compound]", "CLASS ASSIGNMENT": "criterion not met"}
{"SUBSTANCE": "KIKIQIAMWQ", "CLASS ASSIGNMENT": "criterion not met"}
{"SUBSTANCE": "EIEIQINMWQ", "CLASS ASSIGNMENT": "criterion met"}
{"SUBSTANCE": "VQIVYK [reference compound]", "CLASS ASSIGNMENT": "criterion not met"}
{"SUBSTANCE": "ILKNLSRSRKIKIQINMWQ", "CLASS ASSIGNMENT": "criterion not met"}
{"SUBSTANCE": "KIKIQINMWWQ", "CLASS ASSIGNMENT": "criterion met"}
{"SUBSTANCE": "KVKVKVQV", "CLASS ASSIGNMENT": "criterion not met"}
{"SUBSTANCE": "IKFLSVN [reference compound]", "CLASS ASSIGNMENT": "criterion not met"}
{"SUBSTANCE": "KIKIKIKI", "CLASS ASSIGNMENT": "criterion not met"}
{"SUBSTANCE": "KIKIQIII", "CLASS ASSIGNMENT": "criterion not met"}
{"SUBSTANCE": "HGEHGEHGE", "CLASS ASSIGNMENT": "criterion not met"}
{"SUBSTANCE": "RGDKIKIQINMC", "CLASS ASSIGNMENT": "criterion met"}
{"SUBSTANCE": "KNDKND", "CLASS ASSIGNMENT": "criterion not met"}
{"SUBSTANCE": "FKFDKFKFDK", "CLASS ASSIGNMENT": "criterion not met"}
{"SUBSTANCE": "QCKIKQIINM", "CLASS ASSIGNMENT": "criterion met"}
{"SUBSTANCE": "KFKFQFNMW", "CLASS ASSIGNMENT": "criterion not met"}
{"SUBSTANCE": "KYKYQY", "CLASS ASSIGNMENT": "criterion not met"}
{"SUBSTANCE": "RPRGLLLGNLR", "CLASS ASSIGNMENT": "criterion not met"}
{"SUBSTANCE": "KWKWQW", "CLASS ASSIGNMENT": "criterion met"}
{"SUBSTANCE": "CKAKAQANM", "CLASS ASSIGNMENT": "criterion not met"}
{"SUBSTANCE": "CRFRFQF", "CLASS ASSIGNMENT": "criterion not met"}
{"SUBSTANCE": "KFKFEFEF", "CLASS ASSIGNMENT": "criterion met"}
{"SUBSTANCE": "KFKFQFFF", "CLASS ASSIGNMENT": "criterion met"}
{"SUBSTANCE": "KVKGVGK", "CLASS ASSIGNMENT": "criterion not met"}
{"SUBSTANCE": "KCQCQCQ", "CLASS ASSIGNMENT": "criterion met"}
{"SUBSTANCE": "KIKIKIQINMWQ", "CLASS ASSIGNMENT": "criterion met"}
{"SUBSTANCE": "QCKIKIQINM", "CLASS ASSIGNMENT": "criterion met"}
{"SUBSTANCE": "RINFWFW", "CLASS ASSIGNMENT": "criterion met"}
{"SUBSTANCE": "NKGAII [reference compound]", "CLASS ASSIGNMENT": "criterion not met"}
{"SUBSTANCE": "HRRHFRHKITKKK", "CLASS ASSIGNMENT": "criterion not met"}
{"SUBSTANCE": "LANWMCLAKW [reference compound]", "CLASS ASSIGNMENT": "criterion met"}
